Consider the following compounds and their measured fraction unbound readings.
- procedure_details: Plasma protein binding assay (PPB), equilibrium dialysis, 10% FCS in PBS
- Assay type: in vitro ADME
- applied_conditions: bovine, read-out: PPB 10% FCS (% fu)
measured_parameter: fraction unbound

C[C@H](Oc1cc(-n2ccnc2)nc(-c2noc3c2CCC[C@@]32CCCc3sc(N)c(C#N)c32)n1)[C@@H]1CCCN1C; 0.45
C[C@H](Oc1cc(-n2cncn2)nc(-c2noc3c2CCC[C@@]32CCCc3sc(N)c(C#N)c32)n1)[C@@H]1CCCN1C; 0.44
C[C@H](Oc1cc(N2CCN(C)C2=O)nc(-c2noc3c2CCC[C@@]32CCCc3sc(N)c(C#N)c32)n1)[C@@H]1CCCN1C; 0.16
C[C@H](Oc1cc(-n2cc3c(n2)CN(C)C3)nc(-c2noc3c2CCC[C@@]32CCCc3sc(N)c(C#N)c32)n1)[C@@H]1CCCN1C; 0.17
CCOC(=O)c1ccn(-c2cc(O[C@@H](C)[C@@H]3CCCN3C)nc(-c3noc4c3CCC[C@@]43CCCc4sc(N)c(C#N)c43)n2)n1; 0.03
C[C@H](Oc1cc(N2CCNC3(CCC3)C2)nc(-c2noc3c2CCC[C@@]32CCCc3sc(N)c(C#N)c32)n1)[C@@H]1CCCN1C; 0.53
C[C@H](Oc1cc(-c2ccn(CC(C)(C)O)n2)nc(-c2onc3c2CCC[C@@]32CCCc3sc(N)c(C#N)c32)n1)[C@@H]1CCCN1C; 0.23
C[C@H](Oc1cc(N2CC(N(C)C)C2)nc(-c2noc3c2CCC[C@@]32CCCc3sc(N)c(C#N)c32)n1)[C@@H]1CCCN1C; 0.43
CO[C@H]1CCN(C)[C@@H]1[C@H](C)Oc1cc(-n2ccc(C(=O)N[C@H]3CCOC3)n2)nc(-c2noc3c2CCC[C@@]32CCCc3sc(N)c(C#N)c32)n1; 0.06
C[C@H](Oc1cc(N2CCc3cccnc32)nc(-c2noc3c2CCC[C@@]32CCCc3sc(N)c(C#N)c32)n1)[C@@H]1CCCN1C; 0.01
C[C@H](Oc1cc(Cl)nc(-c2onc3c2CCC[C@@]32CCCc3sc(N)c(C#N)c32)n1)[C@@H]1CCCN1C; 0.53
C[C@H](Oc1nc(-c2noc3c2CCC[C@@]32CCCc3sc(N)c(C#N)c32)nc(N2CCNC3(CC3)C2)c1Cl)[C@@H]1C[C@@H](F)CN1C; 0.04
C[C@H](Oc1cc(N2C[C@H](C)N(C)[C@@H](C)C2)nc(-c2noc3c2CCC[C@@]32CCCc3sc(N)c(C#N)c32)n1)[C@@H]1CCCN1C; 0.41
